Examples of compounds with documented inhibition follow.
# system_tested: Caspase-3 (Homo sapiens) (UniProt P42574)
# Sequence (P42574 whole entry, looked up): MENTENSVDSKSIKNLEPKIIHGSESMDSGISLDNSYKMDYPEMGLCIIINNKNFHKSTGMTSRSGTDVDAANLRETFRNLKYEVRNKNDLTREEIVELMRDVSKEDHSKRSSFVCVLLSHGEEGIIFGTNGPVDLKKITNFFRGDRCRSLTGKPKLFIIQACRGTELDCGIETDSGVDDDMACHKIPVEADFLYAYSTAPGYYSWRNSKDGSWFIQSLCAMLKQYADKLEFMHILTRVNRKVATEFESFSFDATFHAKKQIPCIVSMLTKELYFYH
# experiment: CASP3 blockers, validation, counterassay for UBE2N polyubiquitination inhibitor project, biochemical, one-dose (AID 488856);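 further: plate controls were DMSO with caspase-3 for no effect and DMSO wells lacking enzyme for full effect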
# condition_parameters: Recombinant caspase-3, Caspase-Glo 3/7 luminescence, 60 min; at 20 µM; stronger effect = higher value
Among all 1,400 compounds or so, about 50 (4%) were called active. Not all results are given here.

{"compound": "CCCC[C@@H]1CN=C(N)N1CCc1cc(C(F)(F)F)cc(C(F)(F)F)c1", "inhibition": "0.9% (inactive)"}

[Q] Dear colleague, I am looking for the recorded inhibition of the following compound: COc1ccnc2c1c(=O)n(Cc1cccc(F)c1)c(=O)n2C
[A] -0.3% (inactive)

[Q] Quick one: O=C(CCCCCN1C(=O)c2cccc3cccc(c23)C1=O)NCc1ccco1
[A] -1.7% (inactive)

[Q] Same thing, different compound: COc1ccc(/C=N\NC(=O)c2sc(N)nc2C)cc1OC
[A] 23% (inactive)

[Q] Likewise for NC(N)=N/N=C/c1ccc(OCc2ccc(Cl)cc2Cl)cc1 ?
[A] -1.8% (inactive)

[Q] Ok, now Cc1cccc(-n2cnc(C(=O)NNC(=S)Nc3ccccc3)c2)n1
[A] 0% (inactive)

[Q] Can you check Cc1ccccc1C(=O)OC1OC(=O)C(Cl)=C1Nc1ccccc1 (stereo not given) next?
[A] -0.3% (inactive)

[Q] Now try COc1ccc(-c2sc3ccccc3c2-c2ccc(OCCN3CCOCC3)cc2)cc1 .
[A] 0.1% (inactive)

[Q] What would you report for CCN(CC)CCC(c1cc(OC)c(OC)c(OC)c1)c1c(OC)cc(OC)c2c(-c3ccccc3)cc(=O)oc12 (stereo not given) ?
[A] -2% (inactive)

---

# system_tested: Caspase-3 (Homo sapiens)
# experiment: CASP3 blockers, validation, counterassay for UBE2N polyubiquitination inhibitor project, biochemical, one-dose (AID 488856);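 further: plate controls were DMSO with caspase-3 for no effect and DMSO wells lacking enzyme for full effect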
# condition_parameters: Recombinant caspase-3, Caspase-Glo 3/7 luminescence, 60 min; at 20 µM
Hit rate of the full screen: of about 1,400 compounds, about 50 (4%) were called active.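 How the source made its calls: active means mean inhibition across replicates above about 26% (limit read from the data); inactive means the rest.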 These entries were drawn from the full list.
Thanks in advance; please answer with one of these: True = active, False = inactive

{"compound": "CN1CCC(CN)(N2CCN(c3ccccc3)CC2)CC1", "category_label": "False"}
{"compound": "CCOc1ccc2nc(N(CCCN(C)C)C(=O)c3ccc(C(=O)c4ccccc4)cc3)sc2c1", "category_label": "False"}
{"compound": "NC(N)=Nc1nc(-c2ccccc2)c2cc(Cl)ccc2n1", "category_label": "False"}
{"compound": "CC[C@@H](C)[C@@H]1CN([C@@H](C)CN2CCC[C@H]2CN2C(N)=NC[C@H]2C(C)C)C(=N)N1CCc1ccc(Cl)c(Cl)c1", "category_label": "False"}
{"compound": "CSCCC(NC(=O)c1ccc(Cl)cc1Cl)C(=O)NNC(=O)c1csc(N2CCOCC2)n1 (stereo unspecified)", "category_label": "False"}

[Q] Would you mind telling me which call this test gave COc1ccc2sc(-c3ccccc3OC)c(-c3ccc(OCCN4CCCC4)cc3)c2c1 ?
[A] False

[Q] Entry to check: COc1ccc(-n2nnnc2-c2nc3ccccc3s2)cc1
[A] True

[Q] Do the same for CCCOc1ccc(Cl)cc1Nc1nc(NCCO)nc(N2CCCC2)n1 please
[A] False

[Q] Request: Cc1ccc(N(C(=O)c2snc(C(N)=O)c2N)C(C(=O)NCC2CCCO2)c2c[nH]c3ccccc23)cc1 (stereo unspecified)
[A] False

[Q] // query: CN(C)c1ccnc2sc3c(=O)n(Cc4ccccc4)cnc3c12
[A] False

[Q] Param item: CCN1C(=NCc2ccc(OC)cc2)N[C@@H](CCc2ccccc2)[C@H](C(=O)NCc2ccc(OC)cc2)[C@H]1C
[A] False

[Q] Next up: N#Cc1c(-c2ccc(Cl)cc2)c2c([nH]c1=S)CCCC2
[A] False

[Q] Input C#CCOCCOCCOCCNc1nc(N2CCN(C(=O)[C@H](CCCCN)n3cc([C@@H](N)C(C)CC)nn3)CC2)nc(N2CCN(C(=O)[C@H](Cc3ccc(O)cc3)n3cc([C@@H](N)C(C)CC)nn3)CC2)n1 (stereo partly specified)
[A] False

---

Entries and their inhibition
# system_tested: Caspase-3 (Homo sapiens) (UniProt P42574)
# experiment: CASP3 blockers, validation, counterassay for UBE2N polyubiquitination inhibitor project, biochemical, one-dose (AID 488856);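 further: plate controls were DMSO with caspase-3 for no effect and DMSO wells lacking enzyme for full effect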
# condition_parameters: Recombinant caspase-3, Caspase-Glo 3/7 luminescence, 60 min; at 20 µM; stronger effect = higher value
The whole screen tested about 1,400 compounds, of which about 50 (4%) were called active. A selection follows.
Give your result in % as a bare value.

Consider the reported inhibition for these compounds:
{"compound": "CCOC(=O)c1cccc(NS(=O)(=O)c2c(C(=O)N3CCCCCC3)c(C)n(C)c2C)c1", "quantity_unit": "%", "inhibition": -2.7}
{"compound": "Cc1ccc(C(C(=O)NCC2CCCO2)N(C(=O)c2snc(C(N)=O)c2N)c2ccc(C(C)C)cc2)o1 (stereo not drawn)", "quantity_unit": "%", "inhibition": -0.8}
{"compound": "Cc1cccc(-c2nc3ccc(C(=O)NCCN4CCN(C)CC4)cc3nc2-c2cccc(C)c2)c1", "quantity_unit": "%", "inhibition": -4}

As a next step, examine the compound that follows.
[Q] For the compound shown here, Cc1ccc(NC(=O)c2cnc(SCC(=O)NCC3CCCO3)n(C)c2=O)cc1 (stereo not drawn) , give the reported inhibition.
[A] 96.8

---

# system_tested: Caspase-3 (Homo sapiens)
# experiment: CASP3 blockers, validation, counterassay for UBE2N polyubiquitination inhibitor project, biochemical, one-dose (AID 488856);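 further: plate controls were DMSO with caspase-3 for no effect and DMSO wells lacking enzyme for full effect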
# condition_parameters: Recombinant caspase-3, Caspase-Glo 3/7 luminescence, 60 min; at 20 µM
Among all 1,400 compounds or so, about 50 (4%) were called active.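 Rule for the calls: active = mean inhibition across replicates above about 26% (limit read from the data); inactive = the rest.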 The list is a sample of the results.
// one of active, inactive, no free text

Solved entries:
{"compound": "CN1CCN(CCCNC(=O)c2ccc(/C=C3\\Oc4ccccc4N(Cc4ccc(Cl)cc4)C3=O)cc2)CC1", "system_tested": "Caspase-3 (Homo sapiens)", "category_label": "inactive"}
{"compound": "CCN1CCN(CCNC(=O)c2ccc(/C=C3/Sc4ccccc4N(Cc4cccc(C)c4)C3=O)cc2)CC1", "system_tested": "Caspase-3 (Homo sapiens)", "category_label": "inactive"}
{"compound": "COc1ccccc1NC(=O)CSc1nnc(-c2ccoc2C)n1CCc1ccccc1", "system_tested": "Caspase-3 (Homo sapiens)", "category_label": "inactive"}
{"compound": "CC1CN(C(=O)CCC(=O)NCCCN2CCC(Cc3ccccc3)CC2)c2cc(Cl)ccc2O1 (centres undefined)", "system_tested": "Caspase-3 (Homo sapiens)", "category_label": "inactive"}
{"compound": "C[C@@H](CN1CCC[C@H]1CN1C(N)=NC[C@@H]1Cc1ccccc1)N1C[C@@H](Cc2ccccc2)N(CCCC2CCCC2)C1=N", "system_tested": "Caspase-3 (Homo sapiens)", "category_label": "inactive"}
{"compound": "O=c1c2c(nc3n1CCCCC3)sc1c(O)cccc12", "system_tested": "Caspase-3 (Homo sapiens)", "category_label": "active"}
{"compound": "COc1ccccc1-c1sc2ccccc2c1-c1ccc(C(C)=O)cc1", "system_tested": "Caspase-3 (Homo sapiens)", "category_label": "inactive"}
{"compound": "COc1cccc2sc3cc(NCC[C@@H]4CCCN4C)ccc3c(=O)c12", "system_tested": "Caspase-3 (Homo sapiens)", "category_label": "active"}

Now look at this one.
[Q] Hello, I am checking results. What call was entered for CC(C)n1cnc2c(Nc3cccc(Cl)c3)nc(N(CCO)CCCO)nc21 ?
[A] inactive
